test system: 3-hydroxy-3-methylglutaryl-coenzyme A reductase (Rattus norvegicus, UniProt P51639)
Sequence (P51639 whole entry): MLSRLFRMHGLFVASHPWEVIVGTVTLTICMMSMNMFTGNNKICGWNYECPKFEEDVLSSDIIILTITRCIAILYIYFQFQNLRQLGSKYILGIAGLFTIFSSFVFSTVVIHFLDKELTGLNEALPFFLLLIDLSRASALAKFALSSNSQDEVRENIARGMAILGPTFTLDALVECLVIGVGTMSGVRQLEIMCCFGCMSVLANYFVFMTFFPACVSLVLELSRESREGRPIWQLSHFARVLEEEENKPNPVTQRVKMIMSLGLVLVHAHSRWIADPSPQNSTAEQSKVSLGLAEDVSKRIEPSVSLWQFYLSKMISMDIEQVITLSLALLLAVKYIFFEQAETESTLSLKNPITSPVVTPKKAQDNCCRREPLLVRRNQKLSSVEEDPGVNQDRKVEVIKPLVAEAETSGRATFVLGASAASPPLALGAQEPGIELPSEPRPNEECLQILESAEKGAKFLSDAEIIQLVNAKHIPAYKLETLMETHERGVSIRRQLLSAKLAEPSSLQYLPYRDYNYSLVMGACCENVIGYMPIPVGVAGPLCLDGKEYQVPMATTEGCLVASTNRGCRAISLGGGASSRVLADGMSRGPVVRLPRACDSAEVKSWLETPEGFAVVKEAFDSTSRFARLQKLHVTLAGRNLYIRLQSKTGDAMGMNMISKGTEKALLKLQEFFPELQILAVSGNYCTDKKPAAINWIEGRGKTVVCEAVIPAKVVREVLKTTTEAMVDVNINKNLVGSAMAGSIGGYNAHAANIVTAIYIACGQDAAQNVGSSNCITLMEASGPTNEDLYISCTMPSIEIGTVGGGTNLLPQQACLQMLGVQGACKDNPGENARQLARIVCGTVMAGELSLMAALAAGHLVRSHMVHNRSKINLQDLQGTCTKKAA
pIC50: −log10 of the molar value.
Listed next: entries and their corresponding pIC50.
recorded endpoint: pIC50

# compound, test system, recorded number
measured = [
    ("O=C(O)C[C@H](O)CC(=O)CCc1ccccc1", "3-hydroxy-3-methylglutaryl-coenzyme A reductase (Rattus norvegicus, UniProt P51639)", 2.89),
    ("O=C(O)CC(O)CC(O)CCc1ccccc1 (configuration not stated)", "3-hydroxy-3-methylglutaryl-coenzyme A reductase (Rattus norvegicus, UniProt P51639)", 3.22),
]
